Task for the reader: assign each of the following binders its reported pEC50.
Target: T1, Enriched paired helical filament (ePHF; sarkosyl insoluble tau) (human, UniProt P10636 2-758, pathological (hyperphosphorylated) tau isolated from brain; sites not stated)
T1 construct: aggregate isolated from AD frontal cortical tissue
T1 sequence (P10636 other isoform, or with tags, fused parts or gaps limits assumed): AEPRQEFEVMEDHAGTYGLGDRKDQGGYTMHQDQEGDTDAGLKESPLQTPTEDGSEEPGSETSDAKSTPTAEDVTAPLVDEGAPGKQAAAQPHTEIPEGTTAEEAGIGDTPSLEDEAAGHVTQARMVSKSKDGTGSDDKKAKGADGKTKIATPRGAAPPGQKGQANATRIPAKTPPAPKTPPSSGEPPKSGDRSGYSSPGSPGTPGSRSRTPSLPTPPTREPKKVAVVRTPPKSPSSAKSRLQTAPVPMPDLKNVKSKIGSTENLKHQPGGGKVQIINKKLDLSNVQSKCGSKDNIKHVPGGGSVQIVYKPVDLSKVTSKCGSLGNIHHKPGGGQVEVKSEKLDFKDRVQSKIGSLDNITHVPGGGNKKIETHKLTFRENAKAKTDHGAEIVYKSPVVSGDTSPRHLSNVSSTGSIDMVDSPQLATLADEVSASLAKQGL
Experiment: direct ELISA, coated antigen
Please express pEC50 as -log10 of the molar concentration.

Which value of pEC50 has been reported for VY005 (antibody, V domains shown) VH: EVQLVESGGGLVQPGGSLRLSCAASGFTFSSYSMNWVRQAPGKGLEWISYISSSNSTIKYADSVKGRFTISRDNAKNSLYLQMNSLRDEDTAVYYCARRSLGDYWGQGTLVIVSS VL: DIQLTQSPSFLSASVGDRVTITCRASQGISCSLAWYQQKPGKAPKLLIYAASTLQSGVPSRFSGSGSGTEFTLTISSLQPEDFATYYCQQFNSYPFTFGPGTKVDIK in the records?
10.15

Which value of pEC50 has been reported for VY004 (antibody, V domains shown) VH: EVQLVESGGGLVQAGGSLRLSCAASGFTFSDYSMNWVRQAPGKGLEWVSYIRSSSSIIYYADSVKGRFTISRDNAKNSLHLQMNSLRDEDTAVYYCARRGHFDYWGQGTLVTVSS VL: EIVLTQSPATLSLSPGERATLSCRASQSVSDYLAWYQQKPGQAPRLFIYDVSKRATGIPARFSGSGSGTDFTLTISSLEPEDFAVYYCQQRSNWPLTFGGGTKVEIK in the records?
10.15

Which value of pEC50 has been reported for VY012 (antibody, V domains shown) VH: EVQLLESGGGLVQPGGSLRLSCAASGFTYSSYAMSWVRRAPGKGLEWISIISGSSSITYYADSMKGRFTISRDNSKNTLFLQMNSLRAEDTAVYYCAKGGRYGYFQHWGQGTLVTVSS VL: SYVLTQPPSVSVAPGQTARITCGGNNIGSKSVHWYQQKPGQAPVLVVYDDSDRPSGIPERFSGSNSGNTATLTISRVEAGDEADYYCQVWDSSSDPVVFGGGTMLTVL in the records?
10.40

Cited source for all entries: patent US20240059766A1
